B1: SMOC2 (parent)
chain: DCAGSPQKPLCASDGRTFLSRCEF

Variants of: B1
Protocol Notes: protein stability index of a GFP-peptide fusion (GPS, HEK-293T) (PSI 1-6); higher = more stable;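 note: lentivirally expressed fusions sorted by FACS into six bins by GFP to DsRed ratio, PSI derived from sequencing read proportions per bin multiplied by bin number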
Test Conditions: c terminus: a fixed tail appended
Measured Metric: protein stability index

Please review the entries below; each comes with its answer.
Mutations	Result
R21D	4.14
S5A	2.94
C2P	3.4
L19D	4.93
G15M	2.81

State the recorded protein stability index for every item in the following list.
1. K8E
2. S5Q

[2.17, 2.09]

// batch mode: one protein stability index value per listed entry
1. Q7T
2. A12R
3. F18E
4. P6H
5. D1E

1: 2.46; 2: 2.14; 3: 4.54; 4: 2.21; 5: 3.69

Answer for every listed entry: what is its protein stability index? The entries follow.
1. A12G
2. R21P
3. A3V
4. T17K
5. A12F
6. T17Y

2.29
3.91
2.66
3.44
1.89
2.77

Could you report protein stability index for every entry in the following list?
1. G4Y
2. G15N
3. D14L
4. P9V

[2.22, 3.01, 2.2, 2.4]
